Target: T1, human CTLA4-Fc recombinant protein (human, UniProt P16410 36-161)
T1 construct: not shown: Fc part
T1 sequence (looked up): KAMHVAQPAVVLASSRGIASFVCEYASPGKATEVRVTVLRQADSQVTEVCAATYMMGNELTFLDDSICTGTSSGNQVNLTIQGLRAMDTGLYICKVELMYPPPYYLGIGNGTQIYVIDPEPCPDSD
Assay: kinetics of the prokaryotic expression product, analyte CTLA4/Fc, 1:1 binding model
recorded-endpoint: pKd
Give bare numbers, as −log10 of the molar value.

| binder | pKd |
| --- | --- |
| AH01695 (prokaryotic expression antibody product, 5BM library) (Fab, V domains shown, Prokaryotic expression product from Phage-Fab / FASEBA-Fab plasmids) VH: QVQLVQSGAEVKKPGASVKVSCKASGYTFTSYWINWVRQAPGQGLEWMGRIAPGSGTTYYNEMFTGRVTLTRDTSTSTAYIELSSLRSEDTAVYFCAIGDYFDYWGQGTMVTVSS VL: DIQLTQSPSFLSASVGDRVTITCSASKSVSYIHWYQQKPGKAPKLLIYDTSTLASGVPSRFSGSGSGTEFTLTISSLQPEDFATYYCQQRTTYPLTFGQGTKLEIK | 13.97 |
| AH01653 (prokaryotic expression antibody product, CBM library) (Fab, V domains shown) VH: QVHLVQSGAEVKKPGASVKVSCKASGYTFTSYWINWVKQAPGQGLEWMGRIAPGSGTTYYNEMFTGRVTMTRDTSTSTAYMELSSLRSEDTAVYYCARGDYFDYWDQGTMVTVSS VL: DIQLTQSPSFLSASVGDRVTITCSASKSVSYIHWYQQKPGKAPKLLIYDTSTLASGVPSRFSGSGSGPEYTLTISSLQPEDFATYYCQQRTTYPLTFGGGTKLEIK | 10.83 |
| AH01674 (prokaryotic expression antibody product, CBM library) (Fab, V domains shown, Prokaryotic expression product from Phage-Fab / FASEBA-Fab plasmids) VH: QVQLVQSGAEVKKPGASVKVSCKASGYTFTSYWINWVRQAPGQGLEWMGRIAPGSGTTYYNEMFTGRVTMTRDTSTSTAYMELSSLRSEDTAVYYCARGDYFDYWGQGTMVTVSS VL: DIQLTQSPSFLSASVGDRVTITCSASKSVSYIHWYQQKPGKAPKLLIYDTSTLASGVPPRFSGSGSGPEFTLTISSLQPEDFATYYCQQRTTYPLTFGQGTKLEIK | 10.81 |

Please state pKd for every binder in the list that follows.
1. AH01672 (prokaryotic expression antibody product, CBM library) (Fab, V domains shown, Prokaryotic expression product from Phage-Fab / FASEBA-Fab plasmids) VH: QVQLVQSGAEVKKPGASVKVSCKASGYTFTSYWINWVKQAPGQGLEWMGRIAPGSGTTYYNEMFTGRVTMTRDTSTSTAYMELSSLRSEDTAVYYCARGDYFDYWDQGTMVTVSS VL: DIQLTQSPSFLSASVGDRVTITCSASKSVSYIHWYQQKPGKAPKLLIYDTSTLASGVPPRFSGSGSGPEFSLTISSLQPEDFATYYCQQRTTYPLTFGGGTKLEIK
2. AH01686 (prokaryotic expression antibody product, 5BM library) (Fab, V domains shown, Prokaryotic expression product from Phage-Fab / FASEBA-Fab plasmids) VH: QVQLVQSGAEVVKPGASVKVSCKASGYTFTSYWINWIKQAPGQGLEWIGRIAPGSGTTYYNEMFTGRVTLTRDTSTSTAYIELSSLRSEDTAVYFCARGDYFDYWGQGTMVTVSS VL: DIQLTQSPSFLSASVGDRVTITCSASKSVSYIHWYQQKPGKAPKLLIYDTSTLASGVPSRFSGSGSGTEFTLTISSLQPEDFATYYCQQRTTYPLTFGQGTKLEIK

[10.84, 13.36]

Origin of values: patent US20210301021A1
